# system_under_test: T1, ferroportin endogenously expressed on T47D cells (HTB 133, ATCC) (human, UniProt Q9NP59 1-571)
# T1 sequence (looked up): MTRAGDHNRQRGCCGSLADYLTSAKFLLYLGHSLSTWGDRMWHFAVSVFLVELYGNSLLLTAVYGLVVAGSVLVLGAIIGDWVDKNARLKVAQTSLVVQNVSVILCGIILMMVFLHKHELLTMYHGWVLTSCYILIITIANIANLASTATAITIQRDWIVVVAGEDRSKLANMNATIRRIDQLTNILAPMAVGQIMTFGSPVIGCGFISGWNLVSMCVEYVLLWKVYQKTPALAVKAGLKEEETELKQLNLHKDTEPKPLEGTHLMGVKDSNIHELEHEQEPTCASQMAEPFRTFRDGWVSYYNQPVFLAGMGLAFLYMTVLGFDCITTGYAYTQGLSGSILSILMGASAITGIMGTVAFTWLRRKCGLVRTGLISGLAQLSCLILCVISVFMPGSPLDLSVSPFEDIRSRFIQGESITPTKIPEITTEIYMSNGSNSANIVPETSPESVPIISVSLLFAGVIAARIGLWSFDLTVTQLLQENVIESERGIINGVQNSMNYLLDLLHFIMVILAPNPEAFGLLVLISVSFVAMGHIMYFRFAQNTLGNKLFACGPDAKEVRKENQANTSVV
# assay_notes: cell-based or functional assay
Starred links: 1 amine or outer side, 2 acyl side, 3 side chain; linkers in the order of their positions; H or OH if unused. Positions of bridges follow the written chain, without caps; N, C: chain ends. Non-standard residues stand in square brackets, D forms with d. Groups on a side chain read outwards from the residue. *: point of attachment. C18 diacid = O=C(O)CCCCCCCCCCCCCCCCC(=O)*; Dip = N[C@H](C(=O)O)C(c1ccccc1)c1ccccc1; γGlu = O=C(O)[C@H](CCC(=O)[*:2])N[*:1]; Palmitoyl = CCCCCCCCCCCCCCCC(=O)*; β3hF = N[C@H](CC(=O)O)Cc1ccccc1; Isovaleryl = CC(C)CC(=O)*; Dap = NC[C@H](N)C(=O)O; AEEA = NCCOCCOCC(=O)O; Ahx = NCCCCCC(=O)O
Recorded T47D MSA IC50, one value per entry.
Respond with the bare value in nM.

// solved cases for T47D MSA IC50 follow
| binder | measurement_unit | T47D MSA IC50 |
| --- | --- | --- |
| Isovaleryl-ETH[Dip]PKK([Ahx-Palmitoyl])-NH2 (lactam 1-6 (inferred)) [Isovaleric Acid-E-T-H-[Dpa]-P-K-[Lys(Ahx_Palm)]-NH2] | nM | 144 |
| Isovaleryl-KTH[Dip]PIE[β3hF]K([Ahx-Palmitoyl])-NH2 (lactam 1-7; SMILES CCCCCCCCCCCCCCCC(=O)NCCCCCC(=O)NCCCC[C@H](NC(=O)C[C@H](Cc1ccccc1)NC(=O)[C@@H]1CCC(=O)NCCCC[C@H](NC(=O)CC(C)C)C(=O)N[C@@H]([C@@H](C)O)C(=O)N[C@@H](Cc2c[nH]cn2)C(=O)N[C@@H](C(c2ccccc2)c2ccccc2)C(=O)N2CCC[C@H]2C(=O)N[C@@H]([C@@H](C)CC)C(=O)N1)C(N)=O) [Isovaleric Acid-K-T-H-[Dpa]-P-I-E-[bhPhe]-[Lys(Ahx_Palm)]-NH2] | nM | 996 |

Entry Isovaleryl-ETHFPAIK([AEEA-AEEA-γGlu-C18 diacid])FEPRSKGAK-NH2 [Isovaleric Acid-E-T-H-F-P-A-I-[Lys(1PEG2_1PEG2_IsoGlu_C18_Diacid)]-F-E-P-R-S-K-G-A-K-NH2] has what T47D MSA IC50?
3440

Record: Isovaleryl-[Dap]TH[Dip]PAID[β3hF]K([Ahx-Palmitoyl])R-NH2 (lactam 1-8; SMILES CCCCCCCCCCCCCCCC(=O)NCCCCCC(=O)NCCCC[C@H](NC(=O)C[C@H](Cc1ccccc1)NC(=O)[C@@H]1CC(=O)NC[C@H](NC(=O)CC(C)C)C(=O)N[C@@H]([C@@H](C)O)C(=O)N[C@@H](Cc2c[nH]cn2)C(=O)N[C@@H](C(c2ccccc2)c2ccccc2)C(=O)N2CCC[C@H]2C(=O)N[C@@H](C)C(=O)N[C@@H]([C@@H](C)CC)C(=O)N1)C(=O)N[C@@H](CCCNC(=N)N)C(N)=O) [Isovaleric Acid-Dap-T-H-[Dpa]-P-A-I-D-[bhPhe]-[Lys(Ahx_Palm)]-R-NH2]
733
